target: ERBB2 (Homo sapiens); experiment: KiNativ in situ kinase profiling in melanoma cell lysates; format: binding; design: we tested the endogenous kinome response to SAB298; host or cells: YUSIV and YUSIK melanoma cell lysates; conditions: ERBB2 in YUSIK lysate; 3-point dose response
Sequence (P04626 23-1255): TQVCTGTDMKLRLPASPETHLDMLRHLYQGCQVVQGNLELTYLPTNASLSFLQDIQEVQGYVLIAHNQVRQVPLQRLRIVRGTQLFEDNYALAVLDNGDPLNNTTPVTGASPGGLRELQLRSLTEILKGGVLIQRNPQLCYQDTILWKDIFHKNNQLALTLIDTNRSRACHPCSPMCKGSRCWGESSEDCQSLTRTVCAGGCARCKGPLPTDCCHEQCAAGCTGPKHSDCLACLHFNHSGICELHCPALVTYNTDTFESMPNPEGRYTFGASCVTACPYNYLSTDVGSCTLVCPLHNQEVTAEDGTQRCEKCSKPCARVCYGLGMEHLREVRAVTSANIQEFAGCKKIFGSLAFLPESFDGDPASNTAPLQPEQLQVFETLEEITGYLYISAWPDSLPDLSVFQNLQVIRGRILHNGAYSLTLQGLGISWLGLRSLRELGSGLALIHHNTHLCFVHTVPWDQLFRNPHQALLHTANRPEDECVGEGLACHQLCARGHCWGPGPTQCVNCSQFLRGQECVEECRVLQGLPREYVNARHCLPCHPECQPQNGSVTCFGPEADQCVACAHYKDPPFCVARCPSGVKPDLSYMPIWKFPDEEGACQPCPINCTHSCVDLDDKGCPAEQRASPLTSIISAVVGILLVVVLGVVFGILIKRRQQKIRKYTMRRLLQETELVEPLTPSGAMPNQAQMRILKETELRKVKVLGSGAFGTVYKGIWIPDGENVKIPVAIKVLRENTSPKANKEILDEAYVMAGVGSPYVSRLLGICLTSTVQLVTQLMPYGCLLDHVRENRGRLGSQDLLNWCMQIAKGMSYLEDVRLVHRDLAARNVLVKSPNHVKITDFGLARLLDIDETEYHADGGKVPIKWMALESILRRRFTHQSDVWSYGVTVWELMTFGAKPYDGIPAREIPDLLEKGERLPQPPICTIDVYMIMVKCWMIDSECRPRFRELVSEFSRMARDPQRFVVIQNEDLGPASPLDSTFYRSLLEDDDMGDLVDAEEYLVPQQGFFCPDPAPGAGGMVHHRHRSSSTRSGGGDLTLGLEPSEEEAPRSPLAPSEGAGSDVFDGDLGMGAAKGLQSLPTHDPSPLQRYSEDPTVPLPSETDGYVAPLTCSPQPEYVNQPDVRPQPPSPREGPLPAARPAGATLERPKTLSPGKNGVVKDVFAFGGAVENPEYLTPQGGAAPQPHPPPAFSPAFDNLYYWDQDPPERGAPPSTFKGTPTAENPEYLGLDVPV
pIC50: −log10 of the molar value.
Attribute Measured: pIC50

{"columns": ["Smiles Input", "Attribute Measured", "Recorded Value"],
 "data": [
  ["Nc1ncnc2c1c(-c1ccc(Oc3ccccc3)cc1)nn2C[C@@H]1SSC[C@@H]1O", "pIC50", 6.28]
]}

---

target: SRC (Homo sapiens, UniProt P12931); assay: KiNativ in situ kinase profiling in melanoma cell lysates; type: binding; parameters: the endogenous kinome response to SAB298 (0.05 µM, 0.5 µM and 5 µM) in lysates from two melanoma cell lines; host or cells: YUSIV and YUSIK melanoma cell lysates; conditions: SRC in YUSIV lysate; 3-point dose response
Sequence (P12931 whole entry): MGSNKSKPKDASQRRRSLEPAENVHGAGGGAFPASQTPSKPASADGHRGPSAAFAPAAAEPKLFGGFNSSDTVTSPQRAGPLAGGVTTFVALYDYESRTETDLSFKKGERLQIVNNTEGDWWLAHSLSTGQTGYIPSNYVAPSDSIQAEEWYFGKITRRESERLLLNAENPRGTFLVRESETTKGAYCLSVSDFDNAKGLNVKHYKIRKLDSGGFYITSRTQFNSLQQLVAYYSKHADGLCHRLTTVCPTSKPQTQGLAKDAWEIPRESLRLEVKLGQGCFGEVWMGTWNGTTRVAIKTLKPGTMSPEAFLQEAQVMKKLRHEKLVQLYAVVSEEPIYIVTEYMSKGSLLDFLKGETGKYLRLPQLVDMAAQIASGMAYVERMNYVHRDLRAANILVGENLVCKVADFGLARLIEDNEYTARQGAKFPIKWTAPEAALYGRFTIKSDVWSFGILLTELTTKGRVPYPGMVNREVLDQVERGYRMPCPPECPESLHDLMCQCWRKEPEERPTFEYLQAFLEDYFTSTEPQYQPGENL
Attribute Measured: IC50 (nM)

{"columns": ["Molecule", "Recorded Value"],
 "data": [
  ["Nc1ncnc2c1c(-c1ccc(Oc3ccccc3)cc1)nn2C[C@@H]1SSC[C@@H]1O [SAB298]", 31]
]}
